The listing below reports Emax for compounds tested on UniProtKB P43220.
Sequence (P43220 24-463): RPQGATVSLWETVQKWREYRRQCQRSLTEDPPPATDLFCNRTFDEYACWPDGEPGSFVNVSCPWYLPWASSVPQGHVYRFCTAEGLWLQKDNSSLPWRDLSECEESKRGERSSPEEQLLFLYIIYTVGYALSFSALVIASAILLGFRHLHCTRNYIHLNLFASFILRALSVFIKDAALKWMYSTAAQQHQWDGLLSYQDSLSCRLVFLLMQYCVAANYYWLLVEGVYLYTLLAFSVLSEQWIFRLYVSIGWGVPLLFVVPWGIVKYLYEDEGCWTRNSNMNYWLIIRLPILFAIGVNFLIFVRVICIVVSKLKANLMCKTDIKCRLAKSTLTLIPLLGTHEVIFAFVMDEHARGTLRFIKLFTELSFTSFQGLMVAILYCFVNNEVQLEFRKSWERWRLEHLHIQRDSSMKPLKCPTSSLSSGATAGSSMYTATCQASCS
One number for each entry, in %.

Cc1nc2cc(Cl)ccc2nc1Cl	0
CC(C)S(=O)(=O)c1nc2cc(Cl)c(Cl)cc2nc1C(F)(F)F	140

Fill in Emax for each of the 3 compounds listed.
1. CS(=O)(=O)c1nc2cc(Cl)c(Cl)cc2nc1C(F)(F)F
2. Cc1nc2cc(Cl)c(Cl)cc2nc1S(C)(=O)=O
3. CSc1nc2ccc(Cl)cc2cc1C=O

1. 120
2. 130
3. 13
